- System: THRa homodimer (NR concentration 90 nM)
- assay protocol: PBM binding z-score (relative to random genomic background probes); higher = stronger binding; sequences stand for … in GC…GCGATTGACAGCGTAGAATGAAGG
Respond with condition met for PBM binding z-score values of 1 and above, condition not met for values below.

Asked: For this sequence, is measured PBM binding z-score 1 or higher? CGAACTAGGACAAGGACAGTGAATCTCCGCACGC
Given back: condition met

Asked: Is it the case that TCATATAGCTAAATGCTAGGTGAAAGTCCGATCT has PBM binding z-score reaching or exceeding 1?
Given back: condition not met

Asked: Could you please find out whether CCTATTAGTTGACCATAAGGGCATCCGAAGCTCG has PBM binding z-score that meets 1 or exceeds it?
Given back: condition met

Asked: Assess whether reported PBM binding z-score for TCATATAGGTAATACAGGTGAAAGTAGGCATCTA sits at 1 or higher.
Given back: condition not met

Asked: Hello, I need to know if ATCGAAAGGTCGAAGGTGAGTATCCCCACCCGAA has measured PBM binding z-score not below 1. Thanks!
Given back: condition not met

Asked: Entry TCATATAGGTATTACAGGTGAAAGTCGGCATCTA : is its PBM binding z-score no less than 1?
Given back: condition not met

Asked: Test whether the sequence TAGCCTAGGTCATGGGCCAGTCTACCACGCGAAC records PBM binding z-score of 1 or higher.
Given back: condition met

Asked: Test whether the sequence ACAGACAGGTGATGAAGGTCACTCAGGCTATCAT records PBM binding z-score of 1 or higher.
Given back: condition not met

Asked: Hi team, for CCGACTGGGGCAAAAGTTACCATACTCAGTACGA , is the recorded PBM binding z-score at or above 1?
Given back: condition not met

Asked: In plain terms: is recorded PBM binding z-score at least 1 for CAAACTAGGTCCAAGGTCAAAGTCGAGCCAACCA ?
Given back: condition met

Asked: Check this sequence for PBM binding z-score at or above 1: CGTCAAAGTTCAAGGTACCGTAACAGAAAGCAGC
Given back: condition not met

Data origin: the supplement of paper PMC6555819
